The measured values listed here are drawn from ChEMBL document CHEMBL3351375.

# Lookup of reported pIC50 keyed by entry
system: Prostaglandin G/H synthase 1 (Ovis aries, UniProt P05979)
Sequence (P05979 whole entry): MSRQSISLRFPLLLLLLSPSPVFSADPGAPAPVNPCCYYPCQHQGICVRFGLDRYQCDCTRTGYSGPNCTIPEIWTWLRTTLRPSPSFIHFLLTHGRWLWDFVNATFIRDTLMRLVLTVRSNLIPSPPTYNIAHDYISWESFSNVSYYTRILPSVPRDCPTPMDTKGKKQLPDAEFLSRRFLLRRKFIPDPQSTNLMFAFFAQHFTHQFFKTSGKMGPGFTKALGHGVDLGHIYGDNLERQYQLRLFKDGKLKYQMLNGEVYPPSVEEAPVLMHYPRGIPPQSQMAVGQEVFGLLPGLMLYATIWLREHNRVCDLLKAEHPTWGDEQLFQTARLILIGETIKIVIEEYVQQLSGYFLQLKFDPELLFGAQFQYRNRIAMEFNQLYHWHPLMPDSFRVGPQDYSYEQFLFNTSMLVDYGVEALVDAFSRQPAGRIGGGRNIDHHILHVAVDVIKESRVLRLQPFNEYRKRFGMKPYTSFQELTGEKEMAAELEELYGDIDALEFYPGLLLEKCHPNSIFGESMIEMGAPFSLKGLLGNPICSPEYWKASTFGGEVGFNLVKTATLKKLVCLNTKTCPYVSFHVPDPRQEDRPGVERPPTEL
procedure details: Inhibition of purified ovine COX1 pre-treated for 1 hr before 10-acetyl-3,7-dihydroxyphenoxazin substrate addition in presence of porcine liver esterase by fluorescence assay
study conditions: read-out: IC50
The meaning of pIC50 here: minus log10 of the concentration in molar units.

{"molecule": "CC(C)Cc1ccc(C(C)C(=O)OCc2c(C(C)C)c(=O)n(-c3ccccc3)n2C)cc1 (centres undefined)", "quantitative readout": 5.33}
{"molecule": "CC(C)c1c(CN(C)CCc2ccccn2)n(C)n(-c2ccccc2)c1=O", "quantitative readout": 4.62}
{"molecule": "CC(C)c1c(COC(=O)C(C)c2cccc(C(=O)c3ccccc3)c2)n(C)n(-c2ccccc2)c1=O (centres undefined)", "quantitative readout": 6.32}

From here, focus on the item given below.
Query: Which pIC50 value belongs to CC(C)c1c(COC(=O)Cc2ccccc2Nc2c(Cl)cccc2Cl)n(C)n(-c2ccccc2)c1=O ?
Reply: 6.60
